tested on: Escherichia coli; experiment: Antimicrobial activity against Escherichia coli ATCC 25922 assessed as inhibition of bacterial growth by broth microdilution method; assay type: functional
The source made the active and inactive calls. No cut-off for these calls is given here.
recordedEndpoint: MIC

Below are worked cases with known answers.
Per the record, CCCCCCCCCCCCCCNC(=O)[C@H](CCCCN)NC(=O)c1ccc(C(=O)N[C@@H](CCCCN)C(=O)NCCCCCCCCCCCCCC)cc1 has MIC of inactive

Reported MIC of NCCCC[C@H](NC(=O)c1ccc(C(=O)N[C@@H](CCCCN)C(=O)NCc2ccc(-c3ccccc3)cc2)cc1)C(=O)NCc1ccc(-c2ccccc2)cc1 : 3 µg/mL

Reported MIC ( CCCCCCCCCCCCCNC(=O)[C@H](CCCCN)NC(=O)c1ccc(C(=O)N[C@@H](CCCCN)C(=O)NCCCCCCCCCCCCC)cc1 ) = inactive

Record CCCCCCNC(=O)[C@H](CCCCN)NC(=O)c1ccc(C(=O)N[C@@H](CCCCN)C(=O)NCCCCCC)cc1 . Reported MIC: inactive

Lab book: MIC of CCCCCCCCCCNC(=O)[C@H](CCCCN)NC(=O)c1ccc(C(=O)N[C@@H](CCCCN)C(=O)NCCCCCCCCCC)cc1 noted as 3 µg/mL

For CCCCCCCCCCCCNC(=O)[C@H](CCCCN)NC(=O)c1ccc(C(=O)N[C@@H](CCCCN)C(=O)NCCCCCCCCCCCC)cc1 the molecule record lists MIC as 3 µg/mL

Lab note: measured MIC of CCCCCCCNC(=O)[C@H](CCCCN)NC(=O)c1ccc(C(=O)N[C@@H](CCCCN)C(=O)NCCCCCCC)cc1 was 6 µg/mL

GET /value?item= CCCCCCCCCNC(=O)[C@H](CCCCN)NC(=O)c1ccc(C(=O)N[C@@H](CCCCN)C(=O)NCCCCCCCCC)cc1 &field=MIC returns 0.75 µg/mL

Then there is this molecule:
Lab note: CCCCCCCCNC(=O)[C@H](CCCCN)NC(=O)c1ccc(C(=O)N[C@@H](CCCCN)C(=O)NCCCCCCCC)cc1 gave MIC of 0.75 µg/mL

###

test system: Staphylococcus epidermidis; experiment: Antimicrobial activity against methicillin-resistant Staphylococcus epidermidis RP62A assessed as inhibition of bacterial growth by broth microdilution method; type: functional
Activity calls are given as the source filed them. No cut-off for these calls is given here.
recordedEndpoint: MIC

MIC reading for CCCCCCCCCCCCCCNC(=O)[C@H](CCCCN)NC(=O)c1ccc(C(=O)N[C@@H](CCCCN)C(=O)NCCCCCCCCCCCCCC)cc1 : inactive

The reported value for CCCCCCCCCNC(=O)[C@H](CCCCN)NC(=O)c1ccc(C(=O)N[C@@H](CCCCN)C(=O)NCCCCCCCCC)cc1 in terms of MIC is 1.5 µg/mL

Recorded MIC (compound CCCCCCCCNC(=O)[C@H](CCCCN)NC(=O)c1ccc(C(=O)N[C@@H](CCCCN)C(=O)NCCCCCCCC)cc1 ): 3 µg/mL

GET /value?item= CCCCCCCCCCCCNC(=O)[C@H](CCCCN)NC(=O)c1ccc(C(=O)N[C@@H](CCCCN)C(=O)NCCCCCCCCCCCC)cc1 &field=MIC returns 6 µg/mL

Consider CCCCCCCCCCCCCNC(=O)[C@H](CCCCN)NC(=O)c1ccc(C(=O)N[C@@H](CCCCN)C(=O)NCCCCCCCCCCCCC)cc1 . Its measured MIC is 6 µg/mL

GET /value?item= CCCCCCNC(=O)[C@H](CCCCN)NC(=O)c1ccc(C(=O)N[C@@H](CCCCN)C(=O)NCCCCCC)cc1 &field=MIC returns inactive

The recorded MIC for entry NCCCC[C@H](NC(=O)c1ccc(C(=O)N[C@@H](CCCCN)C(=O)NCc2ccc(-c3ccccc3)cc2)cc1)C(=O)NCc1ccc(-c2ccccc2)cc1 equals 6 µg/mL

CCCCCCCNC(=O)[C@H](CCCCN)NC(=O)c1ccc(C(=O)N[C@@H](CCCCN)C(=O)NCCCCCCC)cc1 has a reported MIC of inactive

Turning now to a further record.
Recorded MIC (compound CCCCCCCCCCNC(=O)[C@H](CCCCN)NC(=O)c1ccc(C(=O)N[C@@H](CCCCN)C(=O)NCCCCCCCCCC)cc1 ): 6 µg/mL

###

Reported HC50 at 1 h by item:
assay: Induction of hemolysis in human RBC incubated for 1 hr; type: cell-based, Erythrocyte; conditions: human red blood cells (erythrocytes)

# annotated cases, reported HC50 at 1 h shown
The value of HC50 at 1 h measured for the compound CCCCCCCCCNC(=O)[C@H](CCCCN)NC(=O)c1ccc(C(=O)N[C@@H](CCCCN)C(=O)NCCCCCCCCC)cc1 turned out to be 180 µg/mL

// NCCCC[C@H](NC(=O)c1ccc(C(=O)N[C@@H](CCCCN)C(=O)NCc2ccc(-c3ccccc3)cc2)cc1)C(=O)NCc1ccc(-c2ccccc2)cc1 : HC50 at 1 h value = > 250 µg/mL

The compound CCCCCCCCCCNC(=O)[C@H](CCCCN)NC(=O)c1ccc(C(=O)N[C@@H](CCCCN)C(=O)NCCCCCCCCCC)cc1 showed HC50 at 1 h equal to 250 µg/mL

For record CCCCCCCCNC(=O)[C@H](CCCCN)NC(=O)c1ccc(C(=O)N[C@@H](CCCCN)C(=O)NCCCCCCCC)cc1 the listed HC50 at 1 h is > 250 µg/mL

Query compound follows.
The compound CCCCCCCCCCCCNC(=O)[C@H](CCCCN)NC(=O)c1ccc(C(=O)N[C@@H](CCCCN)C(=O)NCCCCCCCCCCCC)cc1 showed HC50 at 1 h equal to > 250 µg/mL
